Target: Human IBAT (Homo sapiens, UniProt Q12908)
Construct: expressed in transfected cells; Puromycin-selected
Sequence (Q12908 1-348): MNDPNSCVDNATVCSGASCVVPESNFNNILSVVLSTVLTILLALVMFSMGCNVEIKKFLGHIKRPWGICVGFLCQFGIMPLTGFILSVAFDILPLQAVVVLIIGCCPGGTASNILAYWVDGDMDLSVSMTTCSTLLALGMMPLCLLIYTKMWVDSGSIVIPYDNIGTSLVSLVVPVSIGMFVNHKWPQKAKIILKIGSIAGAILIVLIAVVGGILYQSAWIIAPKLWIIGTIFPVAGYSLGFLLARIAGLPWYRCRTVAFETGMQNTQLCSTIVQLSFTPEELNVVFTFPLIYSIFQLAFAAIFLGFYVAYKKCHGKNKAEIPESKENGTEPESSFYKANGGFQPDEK
Assay: IBAT (h/m) assay, human IBAT-overexpressing cells, 3H-taurocholic acid uptake
Type: cell-based
Details: 0.25 μM 3H-taurocholic acid and 5 μM cold taurocholic acid, 20 minutes, read-out: hIBAT IC50
METRIC_NAME: IC50 (nM)

Known results for molecules:
CCCCC1(CC)CN(c2ccccc2)c2cc(SC)c(OCC(C)(F)C(=O)O)cc2S(=O)(=O)C1 (stereo not drawn) [Example 34] :: 12
CCCCC1(CC)CN(c2ccccc2)c2cc(SC)c(OCC(C)(F)C(=O)O)cc2S(=O)(=O)C1 (single isomer, unassigned) [35, diastereomer 1] :: 4

[a] CCCCC1(C)CN(c2ccccc2)c2cc(SC)c(OCC(O)C(=O)O)cc2S(=O)(=O)C1 (single isomer, unassigned) [32, diastereomer 1]
[b] CCCCC1(CC)CN(c2ccccc2)c2cc(Cl)c(OC(C)CC(=O)O)cc2S(=O)(=O)C1 (single isomer, unassigned) [30, diastereomer 1]
[c] CCCCC1(CC)CN(c2ccccc2)c2cc(Br)c(OCCC(=O)O)cc2S(=O)(=O)C1 (single isomer, unassigned) [Example 2]
[d] CCCCC1(CC)CN(c2ccccc2)c2cc(SC)c(OCCC(=O)O)cc2S(=O)(=O)C1 (single isomer, unassigned) [Example 14]
# ascending order, key=IC50 Thanks in advance for listing the labels in the requested order. a, c, b, d
(a: 3 nM, c: 6 nM, b: 22 nM, d: 58 nM)
